test: Pharmacokinetic evaluation of bevirimat HPβCD formulation, intravenous, male Cynomolgus monkeys; conditions: male, cynomolgus monkey, in vivo, iv, 10 mg FAE/monkey, Plasma concentration, 48 hr; 2.5 mg FAE/mL in 10% HPβCD+3% Mannitol in water, 10 mg FAE/monkey intravenous injection; monkeys 115,116,120,AVG
EXPERIMENTAL_READOUT: concentration at 48 hr
Returns: string containing the number followed by the unit.

Q) Sample C=C(C)[C@@H]1CC[C@]2(C(=O)O)CC[C@]3(C)[C@H](CC[C@@H]4[C@@]5(C)CC[C@H](OC(=O)CC(C)(C)C(=O)O)C(C)(C)[C@@H]5CC[C@]43C)[C@@H]12 — what was its concentration at 48 hr?
A) 134 ng/mL

====

experiment: Pharmacokinetic evaluation of liquid bevirimat dosage forms, oral gavage, male Cynomolgus monkeys; conditions: male, cynomolgus monkey, in vivo, po, 200 mg/monkey, Plasma Concentration, PG/glycerin/Vitamin ETPGS/ethanol formulation; 12 hr; individual monkey
EXPERIMENTAL_READOUT: concentration at 12 hr (ng/mL)
I only need the number, in ng/mL, no unit after it.

Q) Sample C=C(C)[C@@H]1CC[C@]2(C(=O)O)CC[C@]3(C)[C@H](CC[C@@H]4[C@@]5(C)CC[C@H](OC(=O)CC(C)(C)C(=O)O)C(C)(C)[C@@H]5CC[C@]43C)[C@@H]12 — what was its concentration at 12 hr?
A) 15600

====

assay: Pharmacokinetic evaluation of liquid bevirimat dosage forms, oral gavage, male Cynomolgus monkeys; details: male, cynomolgus monkey, in vivo, po, 200 mg/monkey, Plasma Concentration, PG/glycerin/Vitamin ETPGS/ethanol formulation; 4.0 hr; AVG
EXPERIMENTAL_READOUT: concentration at 4 hr
Returns: string containing the number followed by the unit.

Q) Sample C=C(C)[C@@H]1CC[C@]2(C(=O)O)CC[C@]3(C)[C@H](CC[C@@H]4[C@@]5(C)CC[C@H](OC(=O)CC(C)(C)C(=O)O)C(C)(C)[C@@H]5CC[C@]43C)[C@@H]12 [Bevirimat] — what was its concentration at 4 hr?
A) 152 µg/mL

====

experiment: Pharmacokinetic evaluation of liquid bevirimat dosage forms, oral gavage, male Cynomolgus monkeys; conditions: male, cynomolgus monkey, in vivo, 50 mg/kg, pH 8
EXPERIMENTAL_READOUT: concentration at 8 hr (µg/mL)
I only need the number, in µg/mL, no unit after it.

Q) Sample C=C(C)[C@@H]1CC[C@]2(C(=O)O)CC[C@]3(C)[C@H](CC[C@@H]4[C@@]5(C)CC[C@H](OC(=O)CC(C)(C)C(=O)O)C(C)(C)[C@@H]5CC[C@]43C)[C@@H]12 — what was its concentration at 8 hr?
A) 70.3

====

assay: Pharmacokinetic evaluation of liquid bevirimat dosage forms, oral gavage, male Cynomolgus monkeys; details: male, cynomolgus monkey, in vivo, po, 50 mg, t1/2, 12.5 mg FAE/mL in 15% Ethanol, 30% PG, 10% Glycerin, 50 mg FAE oral gavage; monkeys 117,118,119,AVG
EXPERIMENTAL_READOUT: half-life (min)
I only need the number, in min, no unit after it.

Q) Sample C=C(C)[C@@H]1CC[C@]2(C(=O)O)CC[C@]3(C)[C@H](CC[C@@H]4[C@@]5(C)CC[C@H](OC(=O)CC(C)(C)C(=O)O)C(C)(C)[C@@H]5CC[C@]43C)[C@@H]12 [Bevirimat] — what was its half-life?
A) 534

====

test: Pharmacokinetic evaluation of liquid bevirimat dosage forms, oral gavage, male Cynomolgus monkeys; conditions: male, cynomolgus monkey, in vivo, po, 50 mg, t1/2, oral, 50 mg/monkey, PG/glycerin/Vitamin ETPGS/Tween80/Plasdone C15 formulation; individual monkey
EXPERIMENTAL_READOUT: half-life
Returns: string containing the number followed by the unit.

Q) Sample C=C(C)[C@@H]1CC[C@]2(C(=O)O)CC[C@]3(C)[C@H](CC[C@@H]4[C@@]5(C)CC[C@H](OC(=O)CC(C)(C)C(=O)O)C(C)(C)[C@@H]5CC[C@]43C)[C@@H]12 [Bevirimat] — what was its half-life?
A) 8.6 h

====

assay: Pharmacokinetic evaluation of liquid bevirimat dosage forms, oral gavage, male Cynomolgus monkeys; settings: male, cynomolgus monkey, in vivo, po, 50 mg/monkey, Plasma Concentration, PG/glycerin/Vitamin ETPGS/ethanol formulation; 2.0 hr; individual monkey
EXPERIMENTAL_READOUT: concentration at 2 h (µg/mL)
I only need the number, in µg/mL, no unit after it.

Q) Sample C=C(C)[C@@H]1CC[C@]2(C(=O)O)CC[C@]3(C)[C@H](CC[C@@H]4[C@@]5(C)CC[C@H](OC(=O)CC(C)(C)C(=O)O)C(C)(C)[C@@H]5CC[C@]43C)[C@@H]12 — what was its concentration at 2 h?
A) 58.9

====

test: Pharmacokinetic evaluation of liquid bevirimat dosage forms, oral gavage, male Cynomolgus monkeys; conditions: male, cynomolgus monkey, in vivo, po, 50 mg, Cmax, 50 mg/monkey, PG/glycerin/Vitamin ETPGS/Tween80/Plasdone C15 formulation; AVG
EXPERIMENTAL_READOUT: Cmax (µg/mL)
I only need the number, in µg/mL, no unit after it.

Q) Sample C=C(C)[C@@H]1CC[C@]2(C(=O)O)CC[C@]3(C)[C@H](CC[C@@H]4[C@@]5(C)CC[C@H](OC(=O)CC(C)(C)C(=O)O)C(C)(C)[C@@H]5CC[C@]43C)[C@@H]12 [Bevirimat] — what was its Cmax?
A) 62.4

====

test: Pharmacokinetic evaluation of liquid bevirimat dosage forms, oral gavage, male Cynomolgus monkeys; details: male, cynomolgus monkey, in vivo, po, 50 mg FAE/monkey, Plasma concentration, 2.0 hr; 50 mg FAE/mL in 40% EtOH:40% PG:20% Glycerol, 50 mg FAE/monkey oral gavage; monkeys 117,118,119,AVG
EXPERIMENTAL_READOUT: concentration at 2 hr (ng/mL)
I only need the number, in ng/mL, no unit after it.

Q) Sample C=C(C)[C@@H]1CC[C@]2(C(=O)O)CC[C@]3(C)[C@H](CC[C@@H]4[C@@]5(C)CC[C@H](OC(=O)CC(C)(C)C(=O)O)C(C)(C)[C@@H]5CC[C@]43C)[C@@H]12 — what was its concentration at 2 hr?
A) 25800

====

experiment: Pharmacokinetic evaluation of liquid bevirimat dosage forms, oral gavage, male Cynomolgus monkeys; settings: male, cynomolgus monkey, in vivo, po, 50 mg FAE
EXPERIMENTAL_READOUT: concentration at 0.25 hr

Q) Sample C=C(C)[C@@H]1CC[C@]2(C(=O)O)CC[C@]3(C)[C@H](CC[C@@H]4[C@@]5(C)CC[C@H](OC(=O)CC(C)(C)C(=O)O)C(C)(C)[C@@H]5CC[C@]43C)[C@@H]12 [Bevirimat] — what was its concentration at 0.25 hr?
A) 3060 ng/mL

====

test: Pharmacokinetic evaluation of liquid bevirimat dosage forms, oral gavage, male Cynomolgus monkeys; conditions: male, cynomolgus monkey, in vivo, po, 50 mg FAE/monkey, Plasma concentration, 6.0 hr; 12.5 mg FAE/mL in 10% HPβCD, 50 mg FAE/monkey oral gavage; monkeys 186,116,120,AVG
EXPERIMENTAL_READOUT: concentration at 6 hr (ng/mL)
I only need the number, in ng/mL, no unit after it.

Q) Sample C=C(C)[C@@H]1CC[C@]2(C(=O)O)CC[C@]3(C)[C@H](CC[C@@H]4[C@@]5(C)CC[C@H](OC(=O)CC(C)(C)C(=O)O)C(C)(C)[C@@H]5CC[C@]43C)[C@@H]12 [Bevirimat] — what was its concentration at 6 hr?
A) 20700

====

assay: Pharmacokinetic evaluation of bevirimat HPβCD formulation, intravenous, male Cynomolgus monkeys; conditions: male, cynomolgus monkey, in vivo, iv, 10 mg FAE/monkey, Plasma concentration, 0.25 hr; 2.5 mg FAE/mL in 10% HPβCD+3% Mannitol in water, 10 mg FAE/monkey intravenous injection; monkeys 115,116,120,AVG
EXPERIMENTAL_READOUT: concentration at 0.25 hr (ng/mL)
I only need the number, in ng/mL, no unit after it.

Q) Sample C=C(C)[C@@H]1CC[C@]2(C(=O)O)CC[C@]3(C)[C@H](CC[C@@H]4[C@@]5(C)CC[C@H](OC(=O)CC(C)(C)C(=O)O)C(C)(C)[C@@H]5CC[C@]43C)[C@@H]12 — what was its concentration at 0.25 hr?
A) 32300

====

experiment: Pharmacokinetic evaluation of liquid bevirimat dosage forms, oral gavage, male Cynomolgus monkeys; settings: male, cynomolgus monkey, in vivo, po, 50 mg/monkey, Plasma Concentration, PG/glycerin/Vitamin ETPGS/ethanol formulation; 6.0 hr; AVG
EXPERIMENTAL_READOUT: concentration at 6 hr (ng/mL)
I only need the number, in ng/mL, no unit after it.

Q) Sample C=C(C)[C@@H]1CC[C@]2(C(=O)O)CC[C@]3(C)[C@H](CC[C@@H]4[C@@]5(C)CC[C@H](OC(=O)CC(C)(C)C(=O)O)C(C)(C)[C@@H]5CC[C@]43C)[C@@H]12 [Bevirimat] — what was its concentration at 6 hr?
A) 23000

Ref: patent US20100216751A1
